Reference source: the supplement of paper PMC11908140

Recorded 8OG:A repair function score values for a group of variants are listed next.
B1: library; numbered along this chain (parent)
chain: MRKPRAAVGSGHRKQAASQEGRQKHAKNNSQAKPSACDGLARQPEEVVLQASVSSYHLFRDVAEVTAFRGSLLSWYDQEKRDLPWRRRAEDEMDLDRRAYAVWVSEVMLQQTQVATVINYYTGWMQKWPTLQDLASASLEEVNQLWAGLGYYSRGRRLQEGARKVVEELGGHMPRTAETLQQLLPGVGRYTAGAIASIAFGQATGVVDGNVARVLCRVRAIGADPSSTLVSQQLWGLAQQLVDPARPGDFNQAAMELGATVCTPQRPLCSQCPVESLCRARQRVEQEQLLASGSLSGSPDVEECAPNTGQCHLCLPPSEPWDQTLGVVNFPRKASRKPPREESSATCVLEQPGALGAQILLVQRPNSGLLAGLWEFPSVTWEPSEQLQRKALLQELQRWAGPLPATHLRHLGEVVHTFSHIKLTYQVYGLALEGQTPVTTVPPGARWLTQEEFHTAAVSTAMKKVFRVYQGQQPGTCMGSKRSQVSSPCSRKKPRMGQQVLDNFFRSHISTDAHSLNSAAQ

- Variants of: B1
- test: 8OG:A repair function score (normalized; synonymous = 0, nonsense = -1) (normalized log-likelihood score); higher = more repair activity (WT-like);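 further: cells sorted at 72 h after reporter transfection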
- condition_set: with 8OG:A DNA repair reporter (GFP) in HEK-293 MUTYH KO cells
No unit in the answer, only the number.

Consider the reported 8OG:A repair function score for these variants:
[[record]]
mutant = "L393V"
readout_value = -0.37

[[record]]
mutant = "S518K"
readout_value = -0.0195


Turning to the following variant.
Note to self: 8OG:A repair function score recorded for `A334T` was -0.0373
